test: small-molecule microarray binders of probe aEGFR, primary screen, biochemical, biotinylated probe, 635/667 nm fluorescence (AID 1097); settings: higher = more signal;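 note: probe is a biotinylated anti-EGFR antibody binding compounds printed on slides; score combines fluorescence near 667 nm and signal to noise of each spot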
Item-by-item account of composite z-score
measured_parameter: composite z-score

* CC(=O)OC[C@H]1O[C@H](CC=NOC[C@@H](O)[C@H]2O[C@@H]3OC(C)(C)O[C@@H]3[C@H]2O)C=C[C@@H]1OC(C)=O | -0.0035
* CCCC[C@H]1CN2[C@@H](CC[C@@H](C)[C@@H]2c2ccc(Br)cc2)C(=O)O1 | -0.0616
* COC(=O)CC=C[C@@H](C)[C@@H](C=NOC(C)CN1CCCCc2nc(C)c(C)cc21)NS(=O)(=O)c1ccc(C)cc1 (stereo not given in full) | -0.0836
* Cc1cc2c(nc1C)CCCCN2CC(O)CN1CCCc2nc(-c3ccc(Br)cc3)ccc21 (stereo not given) | 0.0122
* COC(=O)[C@@H]1CC[C@H](C)[C@@H](c2ccc(C)cc2)N1C(=O)c1ccc(C=NOC[C@H]2O[C@H](c3ccccc3)C=C[C@@H]2Oc2ccc(OC)cc2)cc1 | -0.0682
* COc1ccc(COC(=O)NN=C2C[C@@H](O)[C@@H](O)[C@@H]3[C@@H]4C(=O)N(Cc5ccccc5)C(=O)[C@@H]4CC[C@@H]23)cc1 | -0.0868
* COC(=O)[C@H](C)NC(=O)CCC1CC(OC(=O)NCc2cccc3ccccc23)CC2(CCCC(COC(=O)NCc3cccc(C(F)(F)F)c3)O2)O1 (stereo not given in full) | 0.151
* COC(=O)[C@H](C)NC(=O)CCC1CC(OC(=O)NCc2cccc3ccccc23)CC2(CCCC(COC(=O)NCCC(C)C)O2)O1 (stereo not given in full) | -0.112
* CCCNC(=O)OC[C@H]1O[C@H](CCON=C[C@@H](NS(=O)(=O)c2ccc(C)cc2)[C@H](C)C=CCC(=O)OC)C=C[C@@H]1Oc1ccc(OC)cc1 | -0.0443
* O=C(NCCC[N+]1=CC=NC1c1ccccc1)N1CCCc2nc(-c3ccc(Br)cc3)ccc21 (stereo not given) | -0.0183
* CC(CCN1CCCc2nc(C)c(C)cc21)=NO[C@H](C)c1cn([C@H](CO)Cc2ccccc2)nn1 | 0.0386
* CCOC(=O)CCN1C(=O)[C@H]2[C@@H]3C(=CC[C@H]2C1=O)C(=O)[C@H]1O[C@H]1[C@H]3O | -0.122
* CC(C)(C)N1C(=O)[C@H]2[C@@H]3C(=CC[C@H]2C1=O)C(=O)[C@H]1O[C@H]1[C@H]3O | -0.152
* COc1ccc2c(c1)O[C@@H](c1cccc(C(F)(F)F)c1)[C@H](O)C2=O | 0.0251
* C#CCCCON=C1C[C@@H](O)[C@@H](O)[C@@H]2[C@@H]3C(=O)N(C[C@@H]4CCCO4)C(=O)[C@@H]3CC[C@H]12 | -0.0828

====

assay: small-molecule binders of probe aInhba, primary screen, biochemical, small-molecule microarray, 635/667 nm fluorescence (AID 1148); conditions: higher = more signal;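 note: score merges 667nm spot fluorescence with signal-to-noise for antibody binding to printed compounds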
Item-by-item account of composite z-score
measured_parameter: composite z-score

• CCOC(=O)CCN1C(=O)[C@H]2[C@H]3[C@H](O)[C@H](O)CC(=NNC(=O)OCc4ccc(OC)cc4)[C@H]3CC[C@H]2C1=O = -0.257
• CO[C@@H]1C=CCC(=O)N[C@@H](C)C(=O)OC[C@@H](NS(=O)(=O)c2ccc(C)cc2)[C@H](C)C=CCC(=O)OC[C@H]1C = -0.304
• COCCNC(=O)OCC1CCCC2(CC(OC(=O)NCc3cccc4ccccc34)CC(CCC(=O)N[C@@H](C)C(=O)OC)O2)O1 (some centres undefined) = -0.157
• C[C@H]1CC[C@H]2C(=O)OC(COc3ccc(C(C)(C)C)cc3)CN2[C@@H]1c1ccc(Br)cc1 (some centres undefined) = -0.176

====

target: NADPH oxidase 5 (Homo sapiens) (UniProt Q96PH1); assay: NOX5-dependent H2O2 signal modulators, primary screen, NOX inhibitor project, cell-based, HEK293-NOX5, Amplex Red fluorescence (AID 1161); details: HEK293-NOX5, ionomycin, 45 min, higher = more signal
Sequence (Q96PH1 whole entry, looked up): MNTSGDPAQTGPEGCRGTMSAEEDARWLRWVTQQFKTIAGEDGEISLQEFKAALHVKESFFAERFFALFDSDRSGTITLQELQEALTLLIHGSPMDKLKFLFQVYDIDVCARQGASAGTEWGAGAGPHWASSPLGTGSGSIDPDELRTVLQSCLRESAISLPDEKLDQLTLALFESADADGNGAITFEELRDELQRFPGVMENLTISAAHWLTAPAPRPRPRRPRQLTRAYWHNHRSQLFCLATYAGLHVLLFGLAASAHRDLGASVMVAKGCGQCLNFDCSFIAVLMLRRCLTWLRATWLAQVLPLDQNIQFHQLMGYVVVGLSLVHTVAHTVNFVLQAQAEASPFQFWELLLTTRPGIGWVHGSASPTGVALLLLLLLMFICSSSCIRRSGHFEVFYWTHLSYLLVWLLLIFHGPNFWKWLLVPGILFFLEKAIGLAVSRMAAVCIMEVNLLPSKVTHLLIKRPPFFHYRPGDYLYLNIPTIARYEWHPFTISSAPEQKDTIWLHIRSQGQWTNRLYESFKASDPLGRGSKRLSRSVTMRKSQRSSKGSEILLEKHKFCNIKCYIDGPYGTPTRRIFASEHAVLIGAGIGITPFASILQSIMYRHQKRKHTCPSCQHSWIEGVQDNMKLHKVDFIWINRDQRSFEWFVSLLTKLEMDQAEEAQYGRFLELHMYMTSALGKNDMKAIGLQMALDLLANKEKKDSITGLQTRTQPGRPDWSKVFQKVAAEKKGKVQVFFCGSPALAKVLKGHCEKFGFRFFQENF
Item-by-item account of z-score
measured_parameter: z-score

- CO[C@H]1COC(=O)[C@H](C)COC(=O)[C@@H](OCc2ccccc2)C=C[C@@H]1C: 0.214
- C[C@]12CCC3c4ccc(OCC5CO5)cc4CCC3C1CC[C@@H]2O (some centres undefined): -1.74
- C=CC[C@@H]1C=C[C@H](ON=C2C[C@@H](O)[C@@H](O)[C@@H]3[C@@H]4C(=O)N(CC)C(=O)[C@@H]4CC[C@@H]23)[C@@H](CO)O1: -2.07
- O=C1C=C[C@@H](O)[C@@H]2[C@@H]3C(=O)N(c4cccc(Oc5ccccc5)c4)C(=O)[C@@H]3CC[C@@H]12: 0.283

====

biological target: Alpha-bungarotoxin (Bungarus multicinctus) (UniProt P60615); test: alpha-bungarotoxin binders on microarray, profiling panel, artefact control for SMM control protein annotation, biochemical, small-molecule microarray, Alexa647 label, 635/667 nm fluorescence (AID 1117); details: alpha-BTX-A647 binding fluorescence, higher = more signal
Sequence (P60615 whole entry, looked up): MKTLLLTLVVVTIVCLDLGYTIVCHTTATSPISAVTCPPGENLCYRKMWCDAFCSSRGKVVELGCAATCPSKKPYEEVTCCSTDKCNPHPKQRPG
Entry flag: yes (1) if composite z-score reaches -0.5; no (0) if it does not.

* CSCC[C@@H]1NC(=O)CC=C[C@@H](C)COC(=O)[C@H](C)COC1=O | no (0)
* CCOC(=O)[C@H](Cc1ccccc1)NC(=O)CCC1CC(OC(=O)NCc2ccc3c(c2)OCO3)CC2(CCCC(COC(=O)NCCOC)O2)O1 (stereo partly drawn) | yes (1)
* COC(=O)CC=C[C@@H](C)[C@@H](C=NOC[C@@H](O)COCc1ccco1)OC | no (0)
* CC(CCN1CCCCc2nc(C)c(C)cc21)=NOC[C@@H](O)[C@H]1O[C@@H]2OC(C)(C)O[C@@H]2[C@H]1O | yes (1)
* C[C@@H](c1ccccc1)N1C(=O)[C@H]2[C@H]3[C@H](O)[C@H](O)CC(=NNC(=O)OCc4ccccc4)[C@@H]3CC[C@H]2C1=O | no (0)
* Cc1ccc2[nH]c3nc(CCCn4ccnc4-c4ccccc4)nnc3c2c1 | yes (1)
* COC(=O)[C@H](C)NC(=O)CCC1CC(OC(=O)NCc2cccc3ccccc23)CC2(CCCC(COC(=O)NCCOc3ccccc3)O2)O1 (stereo partly drawn) | yes (1)

====

assay: MM1S cell viability effects, profiling panel, calcein-AM fluorescence, 48 h, basal (AID 1165); details: higher = more signal;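 note: viability of MM1S multiple myeloma cells under basal unstimulated conditions; test concentration not given here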
Entry flag: 1.0 if z-score reaches -0.2; 0.0 if it does not.

* COc1ccc(OC[C@H]2CN3[C@@H](CC[C@@H](C)[C@@H]3c3ccc(Br)cc3)C(=O)O2)cc1 | 1.0
* COC(=O)C1=C(C)N(Cc2ccccc2)C2=C3C(=O)OCC[C@@H]3[C@@](O)(C(=O)OC)C(=O)N2[C@@H]1c1ccccc1 | 1.0
* COC(=O)[C@H](C)NC(=O)CCC1CC(OC(=O)NCc2ccc3c(c2)OCO3)CC2(CCCC(COC(=O)NCCc3ccc(Cl)cc3)O2)O1 (stereo partly specified) | 0.0
* CO[C@@H](C1CCCCC1)[C@@H](C)[C@H](OCc1cccc(Br)c1)[C@@H](C)CO | 0.0
* CCOC(=O)[C@H](CC(C)C)NC(=O)CCC1CC(OC(=O)NCc2ccc3c(c2)OCO3)CC2(CCCC(COC(=O)NCCC(C)C)O2)O1 (stereo partly specified) | 1.0
* CO[C@@H]1COC(=O)[C@@H]2CCCN2C(=O)[C@@H](C)COC(=O)CCC[C@H]1C | 0.0
* COC(=O)[C@H](C)NC(=O)CCC1CC(OC(=O)NCCc2ccc(F)cc2)CC2(CCCC(COC(=O)NCC3CCCCC3)O2)O1 (stereo partly specified) | 0.0
* CCOC(=O)[C@H](CC(C)C)NC(=O)CCC1CC(OC(=O)NCc2ccc3c(c2)OCO3)CC2(CCCC(COC(=O)NCCOc3ccccc3)O2)O1 (stereo partly specified) | 0.0
* CO[C@@H](C(C)C)[C@@H](C)C1OC(=O)CC1O (stereo partly specified) | 1.0
* CO[C@@H]1C=CCC(=O)N[C@@H](C)C(=O)OC[C@@H](OC)[C@H](C)C=CCC(=O)OC[C@H]1C | 1.0
* CCc1cc2c(nc1CC)CCN(CCC(C)=NOC(C)CN1CCCCc3nc(C)c(C)cc31)C2 (stereo unspecified) | 0.0
* OC[C@H]1O[C@H](C#Cc2ccccc2)C=C[C@@H]1O | 0.0
* CC(C)=CCCC(C)=CCON=C1[C@H]2CCn3c(=O)n(-c4ccccc4)c(=O)n3[C@H]2[C@H](O)[C@@H]2O[C@H]12 | 0.0
* CCCNC(=O)OC[C@H]1O[C@H](CCON=C2c3cc(OC)ccc3O[C@H](c3cccc(OC)c3)[C@H]2O)C=C[C@@H]1Oc1ccc(OC)cc1 | 1.0
* C[C@@H]1CC[C@H]2C(=O)OC(CN3C(=O)c4ccccc4C3=O)CN2[C@H]1c1ccc(Br)cc1 (stereo partly specified) | 1.0
* COC(=O)[C@H](Cc1ccccc1)NC(=O)[C@@H](C)CO | 0.0
